Molecular target: uPAR-expressing HEC-265 human endometrial adenocarcinoma cells (Homo sapiens, UniProt Q03405)
Sequence (Q03405 23-335): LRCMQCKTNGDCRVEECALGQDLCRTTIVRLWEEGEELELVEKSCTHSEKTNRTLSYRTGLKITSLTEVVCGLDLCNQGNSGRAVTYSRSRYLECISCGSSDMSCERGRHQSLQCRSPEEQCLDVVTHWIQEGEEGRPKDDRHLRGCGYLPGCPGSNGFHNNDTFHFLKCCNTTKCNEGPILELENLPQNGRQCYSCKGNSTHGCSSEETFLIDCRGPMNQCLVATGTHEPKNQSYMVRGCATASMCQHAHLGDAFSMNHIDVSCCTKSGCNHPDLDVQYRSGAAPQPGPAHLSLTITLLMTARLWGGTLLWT
Where a SMILES comes first, the peptide text is derived from it. Bridges are numbered along the chain shown (N, C = ends). [ ]: non-standard residue; d: D form. The star is where a group is joined. Cit = NC(=O)NCCC[C@H](N)C(=O)O; Propanoyl(3-OEt) = CCOCCC(=O)*
EXPERIMENTAL ENDPOINT: IC50

Some solved entries appear below for comparison.
# COMPOUND, EXPERIMENTAL ENDPOINT, VALUE
records = [
    ("CC[C@H](C)[C@@H]1NC(=O)[C@H](C)NC(=O)[C@@H]2CCCN2C(=O)[C@H](Cc2ccccc2)NC(=O)[C@H](Cc2ccc(O)cc2)NC(=O)[C@H](CCC(N)=O)NC(=O)[C@H](CCCNC(=N)N)NC(=O)[C@@H](NC(=O)[C@H](CC(C)C)NC(=O)[C@H](CC(=O)O)NC(C)=O)CSSC[C@@H](C(N)=O)NC(=O)[C@H](CC(C)C)NC1=O [UPAR-290] (Ac-DLCRQYFPAILC-NH2; disulfide 3-12)", "IC50", "≤ 10 nM"),
    ("CCOCCC(=O)N[C@H]1CSSC[C@@H](C(N)=O)NC(=O)[C@H](CC(C)C)NC(=O)[C@H]([C@@H](C)CC)NC(=O)[C@@H](C)NC(=O)[C@@H]2CCCN2C(=O)[C@H](Cc2ccccc2)NC(=O)[C@H](Cc2ccc(O)cc2)NC(=O)[C@H](CCC(N)=O)NC(=O)[C@H](CCCNC(N)=O)NC1=O [UPAR-172] ({Propanoyl(3-OEt)}-C[Cit]QYFP[dA]ILC-NH2; disulfide 1-10)", "IC50", "≤ 10 nM"),
]

Now look at this entry.
The reported IC50 of the compound CC[C@H](C)[C@@H]1NC(=O)[C@@H](C)NC(=O)[C@@H]2CCCN2C(=O)[C@H](Cc2ccccc2)NC(=O)[C@H](Cc2ccc(O)cc2)NC(=O)[C@H](CCC(N)=O)NC(=O)[C@H](CCCNC(N)=O)NC(=O)[C@@H](NC(=O)CNC(C)=O)CSSC[C@@H](C(N)=O)NC(=O)[C@H](CC(C)C)NC1=O [UPAR-334] (Ac-GC[Cit]QYFP[dA]ILC-NH2; disulfide 2-11) was ≥ 126 nM
